- experimental-system: activated human C1 (Homo sapiens, UniProt P09871)
- method: Test Code 026 (C1 inhibitor)
- Format: biochemical
- condition-summary: serial dilution assay, twofold dilutions; higher well number indicates higher activity
endpoint: Cl 026 Wells

Answered cases to consult:
| molecule | result |
| --- | --- |
| O=S(=O)(O)OC[C@H]1O[C@@H](OC[C@H]2O[C@H](O[C@H]3O[C@H](CO[C@@H]4O[C@H](COS(=O)(=O)O)[C@H](OS(=O)(=O)O)[C@H](OS(=O)(=O)O)[C@H]4OS(=O)(=O)O)[C@@H](OS(=O)(=O)O)[C@H](OS(=O)(=O)O)[C@H]3OS(=O)(=O)O)[C@H](OS(=O)(=O)O)[C@@H](OS(=O)(=O)O)[C@@H]2OS(=O)(=O)O)[C@H](OS(=O)(=O)O)[C@@H](OS(=O)(=O)O)[C@H]1OS(=O)(=O)O [drawing 12] | 9 Wells |
| O=S(=O)(O)O[C@@H]1[C@@H](OS(=O)(=O)O)[C@@H](O[C@H]2O[C@H](CO[C@@H]3OC[C@@H](OS(=O)(=O)O)[C@H](OS(=O)(=O)O)[C@H]3OS(=O)(=O)O)[C@@H](OS(=O)(=O)O)[C@H](OS(=O)(=O)O)[C@H]2OS(=O)(=O)O)O[C@H](CO[C@@H]2OC[C@@H](OS(=O)(=O)O)[C@H](OS(=O)(=O)O)[C@H]2OS(=O)(=O)O)[C@H]1OS(=O)(=O)O [drawing 13] | 10 Wells |
| O=S(=O)(O)OC[C@H]1O[C@@H](OC[C@H]2O[C@H](O[C@H]3O[C@H](CO[C@@H]4O[C@H](COS(=O)(=O)O)[C@H](OS(=O)(=O)O)[C@H](OS(=O)(=O)O)[C@H]4OS(=O)(=O)O)[C@@H](OS(=O)(=O)O)[C@H](OS(=O)(=O)O)[C@H]3OS(=O)(=O)O)[C@H](OS(=O)(=O)O)[C@@H](OS(=O)(=O)O)[C@@H]2OS(=O)(=O)O)[C@H](OS(=O)(=O)O)[C@@H](OS(=O)(=O)O)[C@H]1OS(=O)(=O)O [drawing 11] | 9 Wells |

// switching to the query molecule
[ask] State the recorded Cl 026 Wells for this entry: O=S(=O)(O)O[C@@H]1[C@@H](OS(=O)(=O)O)[C@@H](O[C@H]2O[C@H](CO[C@@H]3OC[C@@H](OS(=O)(=O)O)[C@H](OS(=O)(=O)O)[C@H]3OS(=O)(=O)O)[C@@H](OS(=O)(=O)O)[C@H](OS(=O)(=O)O)[C@H]2OS(=O)(=O)O)O[C@H](CO[C@@H]2OC[C@@H](OS(=O)(=O)O)[C@H](OS(=O)(=O)O)[C@H]2OS(=O)(=O)O)[C@H]1OS(=O)(=O)O [drawing 14]
[reply] 11 Wells
